# Method Notes: xn = mol fraction of the nth substance listed, in the solute-free solvent
# Stated Conditions: 283.15 K; x2 = 0.5454
Reported solubility (g/100 g solution) by item:
Lab note: record the figure alone, no unit after it.

Compound	solubility (g/100 g solution)
Cc1nc2n(c(=O)c1CCN1CCC(c3noc4cc(F)ccc34)CC1)CCCC2 + CC(C)O + O	5.34
Nc1nc2ccc(OC(F)(F)F)cc2s1 + CCCO + O	56.3
c1ccc(-c2ccc(C(c3ccccc3)n3ccnc3)cc2)cc1 (centres undefined) + CC(C)O + O	0.935

Continue with the next compound.
Entry under test: c1ccc(-c2ccc(C(c3ccccc3)n3ccnc3)cc2)cc1 (centres undefined) + CCCO + O . Its solubility (g/100 g solution) was 1.05
